molecular target: S. cerevisiae vacuolar pH, BCECF fluorescence; test: V-ATPase inhibitors raising yeast vacuolar pH, dose response, S. cerevisiae, BCECF dye, powder sets 2-3 (AID 651731)
property label: EC50

structure=O=C(c1cccc(C(F)(F)F)n1)N1CCN(c2nc3ccc(F)cc3s2)CC1 property_label=EC50 reported_result="60.5 µM"
structure=O=C(c1cccc(Cl)n1)N1CCN(c2nc3ccc(F)cc3s2)CC1 property_label=EC50 reported_result="37.4 µM"

Q: Which EC50 is reported for this molecule? O=C(c1cccc(C(F)(F)F)c1)N1CCN(c2nc3ccc(F)cc3s2)CC1
Ans: 31.8 µM

Data provenance is PubChem BioAssay AID651731.
